System: NCI-H322M lung
Assay: NCI-60 one-dose screen, 48 h
Details: 10 µM unless noted
Description: Growth inhibition of the NCI-H322M human Non-Small Cell Lung tumor cell line is measured as a screen for anti-cancer activity. Cells are grown in 96 well plates and exposed to the test compound for 48 hours. Compounds are tested at a single concentration, which is 10^-5 M for most compounds. The reported endpoint is percent growth (GI% or GIPRCNT), where numbers from 0 - 100% represent growth inhibition, and numbers from -100% - 0 represent cell death. […]
The panel holds about 83,000 compounds, 20% with a hit somewhere; the sample as a whole holds those more often. The source made the active and inactive calls. Rule for the calls: active = growth percent below 10; inactive = the rest.
Mark one answer only. Choices: active, inactive

Recorded results for 5 compounds are shown here.
# COMPOUND, ASSAY_SYSTEM, CLASS_ASSIGNMENT
rows = [
    ("CCOC(=O)c1c(C)c2c(n1C)CSc1cc(S(=O)(=O)c3ccccc3)c(=O)[nH]c1-2", "NCI-H322M lung", "inactive"),
    ("Cc1ccc(O)c(NC(=O)c2ccc(CNc3ccnc(C(F)(F)F)c3)cc2)c1", "NCI-H322M lung", "inactive"),
    ("COC(=O)c1c2c(c(C)[n+]([O-])c1C)C(=O)C=CC2=O", "NCI-H322M lung", "active"),
    ("COc1ccc2c(c1)c(-c1nonc1-c1c[nH]c3ccc(Br)cc13)cn2C", "NCI-H322M lung", "inactive"),
    ("CCN(CC)CCOc1nc2c3ccc(Cl)cc3nn2c2ccccc12", "NCI-H322M lung", "inactive"),
]

Outcome logged for O=C1NC(=O)c2c1c1c3ccccc3[nH]c1c1oc3cc(Br)ccc3c21 in this assay:
inactive

Outcome logged for O=C1/C(=C/c2ccccc2[N+](=O)[O-])COc2ccc(O)cc21 in this assay:
inactive

----------
system: UO-31 renal; assay: NCI-60 one-dose screen, 48 h (100 = growth as untreated, 0 = no growth, -100 = all killed); details: 10 µM unless noted
About 83,000 compounds went through this panel and 20% of them were active in at least one assay; those are over-represented in the sample as a whole.
MEASURED_METRIC: growth (%)
Return type: number; implicit unit %.

Example cases with answers are listed next.
# COMPOUND, EXPERIMENTAL_RESULT
data = [
    ("CCn1cc(C2=C(c3cn(C)c4ncccc34)C(=O)NC2=O)c2cccnc21", 50),
    ("COP(=O)(OC)c1nnn(-c2cccc([N+](=O)[O-])c2)c1C", 84.5),
    ("NC(=S)N/N=C/c1cn(-c2ccccc2)nc1-c1cc2ccccc2oc1=O", 50.7),
    ("C=CC1(C)C(O[Si](C)(C)C(C)(C)C)CC2C3OC(=O)NC31c1cccc3c1[C@H](C(=O)N3C)C2(C)C (stereo not given in full)", 49.5),
]

Entry C[N+](C)(C/C=C/c1ccccc1)Cc1ccccc1 has what growth?
82.4

----------
tested on: NCI-H322M lung; test: NCI-60 one-dose screen, 48 h (100 = growth as untreated, 0 = no growth, -100 = all killed); details: 10 µM unless noted
Compounds without any hit were thinned out: in the full panel of roughly 83,000, 20% have a hit.
Listing: growth of selected molecules
Return type: number; implicit unit %.

Entry O=C1NC(=C(Cl)Cl)/C(=N/S(=O)(=O)N2CCCCC2)N1 has what growth?
92.5

Entry N#C/C(=C\c1ccc(Br)cc1)c1cc2ccccc2[nH]1 has what growth?
91.6

Entry CCOC(=O)C/C(=N\Nc1cc(=O)[nH]c2ccc(Cl)cc12)C(=O)OCC has what growth?
91.3

Entry CCCNc1nc2ccccc2c2c(=O)c3cccc(Cl)c3sc12 has what growth?
89.6
